Reference for the values: paper PMC12932713

target: hCB1 receptor (Homo sapiens, UniProt P21554); experiment: AequoScreen hCB1 receptor assay (flash luminescence, recombinant CHO-K1 cells); details: hydroxyindole metabolites versus AM-2201 or JWH-018
Sequence (P21554 whole entry): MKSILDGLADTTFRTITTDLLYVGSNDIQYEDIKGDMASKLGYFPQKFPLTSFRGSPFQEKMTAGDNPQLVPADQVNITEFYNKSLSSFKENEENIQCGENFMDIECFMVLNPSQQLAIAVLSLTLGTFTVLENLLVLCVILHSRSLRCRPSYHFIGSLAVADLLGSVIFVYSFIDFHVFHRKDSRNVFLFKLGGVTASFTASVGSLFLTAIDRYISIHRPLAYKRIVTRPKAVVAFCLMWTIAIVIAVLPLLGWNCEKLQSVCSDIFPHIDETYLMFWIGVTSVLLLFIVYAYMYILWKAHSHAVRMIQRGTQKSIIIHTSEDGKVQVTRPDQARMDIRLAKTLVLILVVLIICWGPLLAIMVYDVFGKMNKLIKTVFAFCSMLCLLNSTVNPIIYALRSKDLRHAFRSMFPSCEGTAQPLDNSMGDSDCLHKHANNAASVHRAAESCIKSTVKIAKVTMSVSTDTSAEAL
Metric: Potency retained, % of the potency of the parent

O=C(c1cccc2ccccc12)c1cn(CCCCCF)c2c(O)cccc12: over 12%
O=C(c1cccc2ccccc12)c1cn(CCCCCF)c2cc(O)ccc12: over 12%
O=C(c1cccc2ccccc12)c1cn(CCCCCF)c2ccc(O)cc12: over 12%
